tested on: Staphylococcus aureus; assay: Antibacterial activity against ciprofolxacin-resistant Staphylococcus aureus SA2017; type: functional
measureName: MIC

Guide cases for MIC, answers given:
compound	MIC
C[C@H]1COc2c(N3CCN(C)CC3)c(F)cc3c(=O)c(C(=O)O)cn1c23.C[C@H]1COc2c(N3CCN(C)CC3)c(F)cc3c(=O)c(C(=O)O)cn1c23.O	8 µg/mL
COc1c(N2CC[C@@H]([C@H](C)N)C2)c(F)cc2c(=O)n(N)c(=O)n(C3CC3)c12	1 µg/mL
COc1c(N2CCNC(C)C2)c(F)cc2c(=O)c(C(=O)O)cn(C3CC3)c12 (stereo unspecified)	8 µg/mL

Working through the 3 compounds below one at a time, give MIC for each.
1. O=C(O)c1cn(C2CC2)c2cc(N3CCNCC3)c(F)cc2c1=O
2. Cc1c(N2CC[C@@H]([C@H](C)N)C2)c(F)cc2c(=O)n(N)c(=O)n(C3CC3)c12
3. C[C@H]1NCc2cc(-c3ccc4c(=O)c(C(=O)O)cn(C5CC5)c4c3OC(F)F)ccc21

["> 64 µg/mL", "0.5 µg/mL", "2 µg/mL"]
